- MEASURED_TARGET: AmtB–GlnK interaction (Escherichia coli, UniProt P69681)
- Construct: pelB signal peptide (N, cleaved yes); 10x His-tag (N, cleaved yes); made in house; host or cells: AmtB: Escherichia coli C41(DE3), pET15b; stGlnK: Escherichia coli ArcticExpress (DE3) RIL, pET28b
- Sequence (P0AC55 whole entry Y51F): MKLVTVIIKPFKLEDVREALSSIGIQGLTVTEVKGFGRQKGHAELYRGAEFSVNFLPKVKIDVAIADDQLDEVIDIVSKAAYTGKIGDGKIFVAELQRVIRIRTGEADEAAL
- Sequence (P69681 23-428): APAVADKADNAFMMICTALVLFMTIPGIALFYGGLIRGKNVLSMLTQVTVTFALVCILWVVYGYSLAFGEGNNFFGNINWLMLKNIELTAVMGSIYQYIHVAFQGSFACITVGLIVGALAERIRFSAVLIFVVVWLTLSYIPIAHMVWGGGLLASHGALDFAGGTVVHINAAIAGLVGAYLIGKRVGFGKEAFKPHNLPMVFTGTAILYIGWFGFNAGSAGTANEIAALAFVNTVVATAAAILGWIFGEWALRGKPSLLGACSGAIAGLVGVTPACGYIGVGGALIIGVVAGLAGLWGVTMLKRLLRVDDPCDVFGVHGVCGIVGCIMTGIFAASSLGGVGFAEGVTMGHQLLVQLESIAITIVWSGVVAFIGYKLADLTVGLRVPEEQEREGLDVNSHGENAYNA
- METHOD_SUMMARY: Native MS lipid titration, GlnK binding to apo or lipid-bound AmtB; coupling factors (allosteric modulation)
- CONDITION: second bound lipid
Exercise: state measured Coupling factor a2 for each of the compounds provided.
One number for each entry.

Value sought for every listed compound: Coupling factor a2.
1. CCCCCCCCCCCCCCCC(=O)OC[C@H](COP(=O)(O)OCC(O)CO)OC(=O)CCCCCCCCCCCCCCC (stereo partly drawn) [DPPG]
2. CCCCCCCC/C=C\CCCCCCCC(=O)OC[C@H](COP(=O)(O)OCC(O)COP(=O)(O)OC[C@@H](COC(=O)CCCCCCC/C=C\CCCCCCCC)OC(=O)CCCCCCC/C=C\CCCCCCCC)OC(=O)CCCCCCC/C=C\CCCCCCCC (stereo partly drawn) [TOCDL, 1,1′,2,2′-tetraoleoyl-cardiolipin]
3. CCCCCCCC/C=C\CCCCCCCC(=O)OC[C@H](COP(=O)(O)OCCN)OC(=O)CCCCCCC/C=C\CCCCCCCC [DOPE (cis)]
4. CCCCCCCC/C=C\CCCCCCCC(=O)O[C@H](COC(=O)CCCCCCCCCCCCCCC)COP(=O)([O-])OCC[N+](C)(C)C [POPC]
5. CCCCCCCCCCCC(=O)OC[C@H](COP(=O)(O)OCC(O)CO)OC(=O)CCCCCCCCCCC (stereo partly drawn) [DLPG]
6. CCCCCCCC/C=C\CCCCCCCC(=O)O[C@H](COC(=O)CCCCCCCCCCCCCCC)COP(=O)(O)OCCN [POPE]

1: 1.98; 2: 1.03; 3: 1.34; 4: 1.76; 5: 1.35; 6: 1.63

Dear colleague, could you send me Coupling factor a2 for each of the items below? Thanks.
1. CCCCCCCC/C=C/CCCCCCCC(=O)OC[C@H](COP(=O)(O)OCCN)OC(=O)CCCCCCC/C=C/CCCCCCCC [DOPE (trans)]
2. CCCCCCCC/C=C\CCCCCCCC(=O)O[C@H](COC(=O)CCCCCCCCCCCCCCCCC)COP(=O)(O)OCCN [SOPE]

1: 3.29; 2: 1.60

Need Coupling factor a2 for each of these compounds.
1. CCCCCCCC/C=C\CCCCCCCC(=O)O[C@H](COC(=O)CCCCCCCCCCCCCCC)COP(=O)(O)OCC(O)CO (stereo partly drawn) [POPG]
2. CCCCCCCCCCCCCC(=O)OC[C@H](COP(=O)(O)OCC(O)CO)OC(=O)CCCCCCCCCCCCC (stereo partly drawn) [DMPG]
3. CCCCCCCC/C=C\CCCCCCCC(=O)O[C@H](COC(=O)CCCCCCCCCCCCCCC)COP(=O)(O)O [POPA]
4. CCCCCCCC/C=C\CCCCCCCC(=O)O[C@H](COC(=O)CCCCCCCCCCCCCCC)COP(=O)(O)OC[C@H](N)C(=O)O [POPS]

[1.30, 1.04, 0.92, 1.09]

----------
- MEASURED_TARGET: AmtB–GlnK interaction (Escherichia coli, UniProt P69681)
- Construct: pelB signal peptide (N, cleaved yes); 10x His-tag (N, cleaved yes); made in house; host or cells: AmtB: Escherichia coli C41(DE3), pET15b; stGlnK: Escherichia coli ArcticExpress (DE3) RIL, pET28b
- METHOD_SUMMARY: Native MS lipid titration, GlnK binding to apo or lipid-bound AmtB; coupling factors (allosteric modulation)
- CONDITION: first bound lipid
- Experimental: A stock of ADP was prepared by dissolving the ammonium salt form of ADP in water followed by adjusting the pH with ammonium hydroxide to 7.0. Serial dilutions into MS buffer (200 mM ammonium acetate, 0.5% C8E4, and pH adjusted to 7.4 with ammonium hydroxide) supplemented with 5 mM BME was performed to prepare ADP at certain concentrations. Phospholipids were prepared as previously described. […] Phospholipid concentration was determined by phosphorus analysis.
Would you mind telling me the reported Coupling factor a1 of each entry?
One number for each entry.

Check out these entries, answers already filled in.
CCCCCCCCCCCCCC(=O)OC[C@H](COP(=O)(O)OCC(O)CO)OC(=O)CCCCCCCCCCCCC (stereo partly drawn) ... 0.99
CCCCCCCC/C=C\CCCCCCCC(=O)OC[C@H](COP(=O)(O)OCCN)OC(=O)CCCCCCC/C=C\CCCCCCCC [DOPE (cis)] ... 1.23
CCCCCCCC/C=C\CCCCCCCC(=O)O[C@H](COC(=O)CCCCCCCCCCCCCCC)COP(=O)(O)OCC(O)CO (stereo partly drawn) ... 1.12

Hello, I would appreciate it if you could give Coupling factor a1 for each entry below.
1. CCCCCCCC/C=C/CCCCCCCC(=O)OC[C@H](COP(=O)(O)OCCN)OC(=O)CCCCCCC/C=C/CCCCCCCC [DOPE (trans)]
2. CCCCCCCC/C=C\CCCCCCCC(=O)O[C@H](COC(=O)CCCCCCCCCCCCCCC)COP(=O)(O)OCCN
3. CCCCCCCCCCCCCCCC(=O)OC[C@H](COP(=O)(O)OCC(O)CO)OC(=O)CCCCCCCCCCCCCCC (stereo partly drawn)
4. CCCCCCCC/C=C\CCCCCCCC(=O)O[C@H](COC(=O)CCCCCCCCCCCCCCCCC)COP(=O)(O)OCCN
5. CCCCCCCC/C=C\CCCCCCCC(=O)O[C@H](COC(=O)CCCCCCCCCCCCCCC)COP(=O)(O)O
6. CCCCCCCCCCCC(=O)OC[C@H](COP(=O)(O)OCC(O)CO)OC(=O)CCCCCCCCCCC (stereo partly drawn)
7. CCCCCCCC/C=C\CCCCCCCC(=O)O[C@H](COC(=O)CCCCCCCCCCCCCCC)COP(=O)(O)OC[C@H](N)C(=O)O
8. CCCCCCCC/C=C\CCCCCCCC(=O)O[C@H](COC(=O)CCCCCCCCCCCCCCC)COP(=O)([O-])OCC[N+](C)(C)C

1.57
1.30
1.25
1.16
0.81
1.30
1.15
1.52

Recall and state the measured Coupling factor a1 for CCCCCCCC/C=C\CCCCCCCC(=O)OC[C@H](COP(=O)(O)OCC(O)COP(=O)(O)OC[C@@H](COC(=O)CCCCCCC/C=C\CCCCCCCC)OC(=O)CCCCCCC/C=C\CCCCCCCC)OC(=O)CCCCCCC/C=C\CCCCCCCC (stereo partly drawn) .
1.17

Reference for the values: paper PMC5736629
